Molecular target: Alpha-1D adrenergic receptor (Homo sapiens) (UniProt P25100)
Sequence (whole entry): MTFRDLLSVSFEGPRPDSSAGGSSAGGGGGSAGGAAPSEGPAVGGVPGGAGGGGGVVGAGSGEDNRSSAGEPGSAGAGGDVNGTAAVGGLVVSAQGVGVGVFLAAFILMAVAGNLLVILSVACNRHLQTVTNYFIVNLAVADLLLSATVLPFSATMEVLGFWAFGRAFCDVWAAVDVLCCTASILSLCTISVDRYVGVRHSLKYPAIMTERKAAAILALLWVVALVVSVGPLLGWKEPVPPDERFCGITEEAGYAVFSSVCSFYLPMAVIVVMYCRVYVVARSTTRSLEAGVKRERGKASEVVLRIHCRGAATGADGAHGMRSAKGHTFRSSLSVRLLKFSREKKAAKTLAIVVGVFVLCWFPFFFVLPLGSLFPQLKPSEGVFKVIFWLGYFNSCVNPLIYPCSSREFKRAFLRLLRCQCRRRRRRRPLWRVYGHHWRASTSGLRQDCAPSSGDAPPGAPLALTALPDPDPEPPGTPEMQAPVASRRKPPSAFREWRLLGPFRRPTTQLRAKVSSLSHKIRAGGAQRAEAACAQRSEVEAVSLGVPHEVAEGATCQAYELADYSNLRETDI
Conditions: Compound concentration 10 µM; call rule not given here
Labels: Y (active), N (inactive)

compound	class
COc1ccc(CNC(=O)c2cc(-c3cncc(Cl)c3)cnc2-c2ccccn2)nc1OC	N
COc1ccc(S(=O)(=O)N2c3ccc(Cl)cc3[C@](O)(c3ccccc3Cl)[C@@H]2C(=O)N2CCC[C@H]2C(N)=O)cc1OC	N
Cc1nn(C)c(C)c1-c1cccc2c1CC[C@H](N(C)C)C2	N
Cc1cc(C)cc(-c2cnc3cc(Cl)c(-c4cccc(O)c4)cc3c2OCCCN)c1	Y
COc1ccc(/C=C/CCCCOc2ccc(C(=O)c3cccc(C(=O)O)c3)cc2CCC(=O)O)cc1	N
OC[C@H]1O[C@@H](n2cnc3c(NC4CCCC4)ncnc32)[C@H](O)[C@@H]1O	N
Cc1ccccc1C(=O)Nc1ccc(C(=O)N2CCCC(O)c3cc(Cl)ccc32)c(C)c1 (centres undefined)	N
CCCn1c(=O)c2nc(C34CC5CC(CC3C5)C4)[nH]c2n(CCC)c1=O	N
CC(C)NCC(O)COc1ccc(CCOCC2CC2)cc1 (centres undefined)	N

###

molecular target: 5-hydroxytryptamine receptor 5A (Homo sapiens); settings: Compound concentration 10 µM; call rule not given here
Labels: yes (1) = active, no (0) = inactive

molecule	class
CN(C)C(=O)N[C@H]1CC[C@H](CCN2CCN(c3cccc(Cl)c3Cl)CC2)CC1	yes (1)
CNc1nc(NCc2ccc(NS(C)(=O)=O)cc2Cl)cc(-c2ccccn2)n1	yes (1)
Cc1nc(C#Cc2ccnc(Cl)c2)c(C)n1-c1ccc(OC(F)(F)F)cc1	no (0)
C[C@]1(C(=O)N(CCCC(=O)O)Cc2cccc(Cl)c2)CCN1C(=O)c1csc2ccccc12	no (0)
N#Cc1cccc(C(=O)Nc2cc(-c3ccccc3)nn2-c2ccccc2)c1	no (0)
CC1CCN(CC[C@H]2CCCN2S(=O)(=O)c2cccc(O)c2)CC1	yes (1)
C[C@H](Cc1cc2c(c(C(N)=O)c1)N(CCCO)CC2)NCCOc1ccccc1OCC(F)(F)F	no (0)
Cc1cc(C)c(N)c(C#Cc2cccc(F)c2)n1	no (0)
Cc1c(P(=S)(c2ccccc2)c2ccccc2)n2ccccc2[n+]1C/C=C/c1ccccc1	no (0)
O=C(O)C1CN(Cc2ccc(-c3nc4cc(Cc5ccccc5F)ccc4s3)c(F)c2)C1	no (0)
Nc1nc2c(c(N3CCNCC3)n1)CCC1=C2[C@@H]2CCCC[C@@H]2O1	no (0)
N#Cc1c(O)nc(SCc2cccc(F)c2F)nc1C1CC1	no (0)
CCc1cc2c(cc1CC)CC(NC[C@H](O)c1ccc(O)c3[nH]c(=O)ccc13)C2	no (0)
COC(=O)C1=C(C)NC(C)=C(C(=O)OCCCN2CCC(c3ccccc3)(c3ccccc3)CC2)[C@H]1c1cccc([N+](=O)[O-])c1	yes (1)
Cc1ccccc1N1CCN(S(=O)(=O)C[C@]23CC[C@H](C[C@@H]2NC(=O)[C@@H](N)CCS(C)(=O)=O)C3(C)C)CC1	no (0)
CCOC(=O)c1cc(C#N)c(N2CCC(C(=O)NS(=O)(=O)Cc3ccccc3)CC2)nc1C	no (0)
CN1CC(=O)N=C1NC(=O)Nc1cccc(Cl)c1	no (0)
OC[C@H]1O[C@@H](n2cnc3c(NC4CCCC4)ncnc32)[C@H](O)[C@@H]1O	no (0)
OCc1cc(C(O)CNCCCCCCOCCCCc2ccccc2)ccc1O (stereo not given)	no (0)
Clc1cccc(Cl)c1NC1=NCCN1	no (0)

###

Target: Alpha-2B adrenergic receptor (Homo sapiens) (UniProt P18089)
Sequence (whole entry): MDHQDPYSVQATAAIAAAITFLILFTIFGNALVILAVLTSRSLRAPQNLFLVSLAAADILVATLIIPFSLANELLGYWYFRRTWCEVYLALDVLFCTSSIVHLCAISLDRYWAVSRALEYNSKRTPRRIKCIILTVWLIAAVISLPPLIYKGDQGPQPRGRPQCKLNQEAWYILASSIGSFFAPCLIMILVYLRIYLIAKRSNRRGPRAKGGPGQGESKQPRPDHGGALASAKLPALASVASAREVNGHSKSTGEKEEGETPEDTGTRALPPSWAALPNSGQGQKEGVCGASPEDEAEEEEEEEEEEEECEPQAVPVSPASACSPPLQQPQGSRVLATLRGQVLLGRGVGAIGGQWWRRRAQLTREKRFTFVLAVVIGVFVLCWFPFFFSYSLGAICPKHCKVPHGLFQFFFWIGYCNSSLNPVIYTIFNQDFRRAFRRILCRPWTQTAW
Details: Compound concentration 10 µM; call rule not given here
Labels: active, inactive

compound	class
CCc1ccc(OCc2ccccc2C(=O)Nc2ccc3nc(C)cc(N)c3c2)cc1	active
N#Cc1c(N)nc(SCc2csc(-c3ccc(Cl)cc3)n2)c(C#N)c1-c1ccc(OCCO)cc1	inactive
N#Cc1cccc(C(=O)Nc2cc(-c3ccccc3)nn2-c2ccccc2)c1	inactive
NC[C@@H]1O[C@H](C23CC4CC(CC(C4)C2)C3)Cc2c1ccc(O)c2O	active
Cc1ccccc1C(=O)Nc1ccc(C(=O)N2CCCC(O)c3cc(Cl)ccc32)c(C)c1 (stereo unspecified)	inactive
CN1CCCC(n2nc(Cc3ccc(Cl)cc3)c3ccccc3c2=O)CC1 (stereo unspecified)	active

###

Readings of inhibition for the listed molecules
target: UniProt:P08172; details: Compound concentration 10 µM
Sequence (P08172 whole entry): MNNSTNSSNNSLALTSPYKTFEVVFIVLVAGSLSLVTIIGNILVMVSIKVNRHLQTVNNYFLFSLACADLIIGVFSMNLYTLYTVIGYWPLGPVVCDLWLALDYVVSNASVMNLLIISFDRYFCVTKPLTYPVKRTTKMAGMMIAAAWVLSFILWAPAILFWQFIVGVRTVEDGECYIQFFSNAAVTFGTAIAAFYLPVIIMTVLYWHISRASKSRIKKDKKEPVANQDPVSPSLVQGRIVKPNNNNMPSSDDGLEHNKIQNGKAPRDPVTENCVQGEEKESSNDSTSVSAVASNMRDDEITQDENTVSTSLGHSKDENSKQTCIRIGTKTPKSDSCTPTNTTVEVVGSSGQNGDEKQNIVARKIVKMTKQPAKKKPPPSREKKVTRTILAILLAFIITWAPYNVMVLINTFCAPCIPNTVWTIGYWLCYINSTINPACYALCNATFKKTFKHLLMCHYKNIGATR
Description: PDSP Primary Binding target: CHRM2 - Compounds are tested at 10 uM concentration, plate are incubated at room temperature in the dark for 90 minutes. Reaction are stopped by vacuum filtration onto 0.3% polyethyleneimine soaked filter mats using Filtermate harvester. Scintilation cocktail is then melted onto microwave-dried filters on a hot plate and the radio activity is counted in Microbia counter.

molecule	target under test	inhibition (%)
N#Cc1c(O)nc(SCc2cccc(F)c2F)nc1C1CC1	UniProt:P08172	28.1
O=C(O)c1cc(-c2ccc(C3CCNCC3)cc2)c2ccc(-c3ccc(C(F)(F)F)cc3)cc2c1	UniProt:P08172	10.7
NC(=O)[C@@H]1CCCN1C(=O)[C@H](Cc1c[nH]cn1)NC(=O)[C@@H]1CCC(=O)N1	UniProt:P08172	-6.24
O=C(Nc1ccc(Cl)cc1)Nc1cccc(-c2cccc(N3CCCC3)n2)c1	UniProt:P08172	12.7
OCc1cc(C(O)CNCCCCCCOCCCCc2ccccc2)ccc1O (stereo not given)	UniProt:P08172	3.27
COc1ccc(/C=C/CCCCOc2ccc(C(=O)c3cccc(C(=O)O)c3)cc2CCC(=O)O)cc1	UniProt:P08172	7.46
NC[C@@H]1O[C@H](C23CC4CC(CC(C4)C2)C3)Cc2c1ccc(O)c2O	UniProt:P08172	-9.03
Cc1nc(C(=O)N2CCC[C@H]2Cc2nnc(-c3ccccc3)o2)c(-c2ccccc2F)s1	UniProt:P08172	71.2
FC(F)(F)c1c(N2CCC(c3ccccc3)CC2)ccn2c(CC3CC3)nnc12	UniProt:P08172	7.85
O=C(O)C1CN(Cc2ccc(-c3nc4cc(Cc5ccccc5F)ccc4s3)c(F)c2)C1	UniProt:P08172	-8.59
CC(C)Oc1ccccc1C(=O)Nc1ccccc1C(=O)Nc1cccc(S(=O)(=O)C(F)(F)F)c1	UniProt:P08172	-6.99
N[C@H](C(=O)O)c1ccc(C(=O)O)c(C(=O)O)c1	UniProt:P08172	45
FC(F)(F)c1cccc(-c2noc(-c3cc(-c4ccccc4)c(C(F)(F)F)s3)n2)c1	UniProt:P08172	-7.48
Cc1ccccc1C(=O)Nc1ccc(C(=O)N2CCCC(O)c3cc(Cl)ccc32)c(C)c1 (stereo not given)	UniProt:P08172	2.3
CN1CCC(C(=O)c2cccc(NC(=O)c3c(F)cc(F)cc3F)n2)CC1	UniProt:P08172	-1.5
C[C@H](Cc1cc2c(c(C(N)=O)c1)N(CCCO)CC2)NCCOc1ccccc1OCC(F)(F)F	UniProt:P08172	-1.87
C[C@H](NC[C@H](O)CP(=O)(O)CC1CCCCC1)c1ccc(Cl)c(Cl)c1	UniProt:P08172	40.4
NCCc1cn(S(=O)(=O)c2c(Cl)nc3sccn23)c2ccccc12	UniProt:P08172	15.1
Cc1cn2cc(CC(=O)N3CCC4(CC3)CN(Cc3ccc(-n5nccn5)cc3Cl)C4)nc2s1	UniProt:P08172	68.5
C[C@@H](NCCCc1cccc(C(F)(F)F)c1)c1cccc2ccccc12	UniProt:P08172	42

Numbers sourced from ChEMBL document CHEMBL5442219.
